src = patent US7037919B1

# tested target: Rat androgen receptors (rat AR) (Rattus norvegicus)
# Construct: from tissue; host or cells: prostate of orchiectomized male SD rats (100,000 x g supernatant)
# Sequence (P15207 1-902): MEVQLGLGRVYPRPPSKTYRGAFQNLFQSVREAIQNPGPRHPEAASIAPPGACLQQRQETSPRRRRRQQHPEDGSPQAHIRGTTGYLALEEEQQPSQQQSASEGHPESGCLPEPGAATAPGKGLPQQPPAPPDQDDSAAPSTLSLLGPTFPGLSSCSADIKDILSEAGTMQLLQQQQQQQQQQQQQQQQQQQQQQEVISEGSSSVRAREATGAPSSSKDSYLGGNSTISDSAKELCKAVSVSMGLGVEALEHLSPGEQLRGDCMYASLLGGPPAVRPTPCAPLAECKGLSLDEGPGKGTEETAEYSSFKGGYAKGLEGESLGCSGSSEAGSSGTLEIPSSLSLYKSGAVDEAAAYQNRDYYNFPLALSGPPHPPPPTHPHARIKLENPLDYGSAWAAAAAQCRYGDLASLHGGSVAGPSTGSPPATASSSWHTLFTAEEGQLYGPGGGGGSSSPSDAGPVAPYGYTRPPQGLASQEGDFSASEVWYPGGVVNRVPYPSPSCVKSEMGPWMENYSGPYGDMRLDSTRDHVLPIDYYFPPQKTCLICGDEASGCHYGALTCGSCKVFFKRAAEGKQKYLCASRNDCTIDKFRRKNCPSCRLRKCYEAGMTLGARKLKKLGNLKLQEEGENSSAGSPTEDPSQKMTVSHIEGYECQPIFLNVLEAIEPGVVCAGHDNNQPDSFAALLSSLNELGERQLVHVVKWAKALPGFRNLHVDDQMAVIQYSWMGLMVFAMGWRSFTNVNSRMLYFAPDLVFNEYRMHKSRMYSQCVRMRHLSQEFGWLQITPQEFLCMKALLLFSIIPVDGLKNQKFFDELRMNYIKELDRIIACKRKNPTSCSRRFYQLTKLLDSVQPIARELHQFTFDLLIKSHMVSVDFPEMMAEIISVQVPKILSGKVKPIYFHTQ
# measurement description: Test for competitive binding to rat androgen receptors
# measurement conditions: 3H-testosterone, rat prostate AR fraction; hydroxyflutamide taken as 100
test readout: RBA (Relative Binding Affinity = 100 x IC50 of hydroxyflutamide / IC50 of the compound)
Answers are plain numbers.

Given the entry CC(C)(O)C(=O)Nc1ccc([N+](=O)[O-])c(C(F)(F)F)c1 [Hydroxyflutamide, hydroxyflutamide, reference compound] , what RBA (Relative Binding Affinity = 100 x IC50 of hydroxyflutamide / IC50 of the compound) was observed with Rat androgen receptors (rat AR) (Rattus norvegicus)?
100

Provide RBA (Relative Binding Affinity = 100 x IC50 of hydroxyflutamide / IC50 of the compound) values for the following items, in order.
1. CC(C)(CO)C1Nc2ccc(C#N)cc2C2C=CCC21 (stereo not drawn)
2. CC(C)C(=O)NCC(C)(C)C1Nc2ccc([N+](=O)[O-])cc2C2C=CCC21 (stereo not drawn)
3. CC(C)NC(=S)NCC(C)(C)C1Nc2ccc([N+](=O)[O-])cc2C2C=CCC21 (stereo not drawn)
4. CC(C)(OCc1ccccc1)C1Nc2ccc([N+](=O)[O-])cc2C2C=CCC21 (stereo not drawn)

1: 236; 2: 55; 3: 244; 4: 74

Provide RBA (Relative Binding Affinity = 100 x IC50 of hydroxyflutamide / IC50 of the compound) values for the following items, in order.
1. CC(=O)OCC(C)(C)C1Nc2ccc(C#N)cc2C2C=CCC21 (stereo not drawn)
2. CC(C)(CNS(C)(=O)=O)C1Nc2ccc([N+](=O)[O-])cc2C2C=CCC21 (stereo not drawn)

1. 96
2. 2288

Provide RBA (Relative Binding Affinity = 100 x IC50 of hydroxyflutamide / IC50 of the compound) values for the following items, in order.
1. CC(=O)SCC(C)(C)C1Nc2ccc([N+](=O)[O-])cc2C2C=CCC21 (stereo not drawn)
2. CCS(=O)(=O)NCC(C)(C)C1Nc2ccc([N+](=O)[O-])cc2C2C=CCC21 (stereo not drawn)
3. CCNC(=S)NCC(C)(C)C1Nc2ccc([N+](=O)[O-])cc2C2C=CCC21 (stereo not drawn)
4. CC(C)NC(=O)NCC(C)(C)C1Nc2ccc([N+](=O)[O-])cc2C2C=CCC21 (stereo not drawn)
5. CC(C)(CO)C1Nc2cccc([N+](=O)[O-])c2C2C=CCC21 (stereo not drawn)
6. CC(C)(CCl)C1Nc2ccc([N+](=O)[O-])cc2C2C=CCC21 (stereo not drawn)

1: 131; 2: 814; 3: 491; 4: 298; 5: 65; 6: 75

====

# tested target: Rat androgen receptors (rat AR) (Rattus norvegicus, UniProt P15207)
# Construct: from tissue; host or cells: prostate of orchiectomized male SD rats (100,000 x g supernatant)
# measurement description: Test for competitive binding to rat androgen receptors
# measurement conditions: 3H-testosterone, rat prostate AR fraction; hydroxyflutamide taken as 100
Assign RBA (Relative Binding Affinity = 100 x IC50 of hydroxyflutamide / IC50 of the compound) to each entry below.
Give bare numbers.

Here is how some compounds turned out for RBA (Relative Binding Affinity = 100 x IC50 of hydroxyflutamide / IC50 of the compound).
Given the entry CC(=O)NCC(C)(C)C1Nc2ccc([N+](=O)[O-])cc2C2C=CCC21 (centres unmarked) , what RBA (Relative Binding Affinity = 100 x IC50 of hydroxyflutamide / IC50 of the compound) was observed with Rat androgen receptors (rat AR) (Rattus norvegicus, UniProt P15207)?
478

Input CC(=O)Nc1ccc(S(=O)(=O)NCC(C)(C)C2Nc3ccc([N+](=O)[O-])cc3C3C=CCC32)cc1 (centres unmarked)
580

Provide RBA (Relative Binding Affinity = 100 x IC50 of hydroxyflutamide / IC50 of the compound) values for the following items, in order.
1. CC(C)(CNS(=O)(=O)c1ccc(F)cc1)C1Nc2ccc([N+](=O)[O-])cc2C2C=CCC21 (centres unmarked)
2. COC(C)(C)C1Nc2ccc([N+](=O)[O-])cc2C2C=CCC21 (centres unmarked)
3. CC(C)(CO)C1Nc2ccc([N+](=O)[O-])cc2C2C=CCC21 (centres unmarked)

1: 169; 2: 57; 3: 4751
